The measured values listed here are drawn from the Immune Epitope Database (IEDB).

The sequences listed here are annotated with their IC50.
biological target: HLA-A*02:02; experiment: IEDB peptide-MHC binding, cellular MHC/competitive/fluorescence; bounds were set here for any values at or beyond the usual limits of such assays; conditions: source organism: Influenza A virus
# output: bare number, implied unit µM

polymer_sequence | target | unit_string | IC50
AVPNGTLV | HLA-A*02:02 | µM | 10.8
YLEKANKI | HLA-A*02:02 | µM | 8.22
NALLKHRFEII | HLA-A*02:02 | µM | 11.2

Give IC50 only, for `GADINLMPI` , using HLA-A*02:02 data. 7.41

Give IC50 only, for `ILLRAFTEEGA` , using HLA-A*02:02 data. 9.59

* * *

biological target: HLA-A*02:01; assay: IEDB peptide-MHC binding, cellular MHC/competitive/fluorescence; bounds were set here for any values at or beyond the usual limits of such assays; conditions: source organism: Vaccinia virus WR
The sequences listed here are annotated with their pIC50.
// pIC50 here means minus log10 of the molar concentration (mol/L)

# count of solved cases: 5
polymer_sequence | target | pIC50
AAAKTPVIV | HLA-A*02:01 | 4.46
EIKAEMQLKI | HLA-A*02:01 | 4.56
FAFIDFSKST | HLA-A*02:01 | 5.11
DMICCDSRIV | HLA-A*02:01 | 4.46
NINFNNSSII | HLA-A*02:01 | 4.49

Give pIC50 only, for `EVRYIDITNI` , using HLA-A*02:01 data. 5.07

Give pIC50 only, for `YTKHSMLTNA` , using HLA-A*02:01 data. 4.42

Give pIC50 only, for `LIKKPYRSI` , using HLA-A*02:01 data. 4.23

Give pIC50 only, for `DAFSREYSM` , using HLA-A*02:01 data. 5.12

Give pIC50 only, for `ILHRLHEILT` , using HLA-A*02:01 data. 4.90

Give pIC50 only, for `GIRVKHSFSA` , using HLA-A*02:01 data. 5.16

Give pIC50 only, for `PVDDGPDDET` , using HLA-A*02:01 data. 4.82

* * *

The sequences listed here are annotated with their IC50.
molecular target: HLA-A*02:03; assay: IEDB peptide-MHC binding, purified MHC/competitive/radioactivity; bounds were set here for any values at or beyond the usual limits of such assays; conditions: source organism: SARS-CoV1
# output: bare number, implied unit nM

# count of solved cases: 2
polymer_sequence | IC50, nM
GTSAAAYFV | 202
ALLFLMSFTI | 199

In the following, a different sequence is considered.
Dear colleague, please send me the reported IC50 for `ALVLLILMTA` when you can. 51

* * *

The sequences listed here are annotated with their log10 IC50.
molecular target: HLA-A*02:01; experiment: IEDB peptide-MHC binding, cellular MHC/competitive/fluorescence; bounds were set here for any values at or beyond the usual limits of such assays; conditions: source organism: Vaccinia virus WR
On a log10 scale: recorded IC50, unit µM.

# count of solved cases: 3
polymer_sequence | log10 IC50
LVKLSSYHVV | 1.16
GIPITIRVT | 1.27
RLLKNMKQCT | 0.99

Dear colleague, please send me the reported log10 IC50 for `ETMYLTMKAI` when you can. 0.82

Dear colleague, please send me the reported log10 IC50 for `FTVTNKEGV` when you can. 1.01

Dear colleague, please send me the reported log10 IC50 for `QTPIQSDAGM` when you can. 1.54

Dear colleague, please send me the reported log10 IC50 for `DMPSLSNGLI` when you can. 1.63

Dear colleague, please send me the reported log10 IC50 for `YALEPRKEI` when you can. 0.99

Dear colleague, please send me the reported log10 IC50 for `ELIDVLKTRL` when you can. 0.73

Dear colleague, please send me the reported log10 IC50 for `VVKDKIKLPT` when you can. 1.60

Dear colleague, please send me the reported log10 IC50 for `AIRAGYSIV` when you can. 0.70

Dear colleague, please send me the reported log10 IC50 for `NQCMSANEAA` when you can. 1.83

Dear colleague, please send me the reported log10 IC50 for `VIKCMIDEGA` when you can. 0.99

Dear colleague, please send me the reported log10 IC50 for `IISTDQDTML` when you can. 0.93

Dear colleague, please send me the reported log10 IC50 for `IAMKVIQGI` when you can. 0.89

Dear colleague, please send me the reported log10 IC50 for `RVLYDEFVT` when you can. 1.13

Dear colleague, please send me the reported log10 IC50 for `KTRLFRSPQV` when you can. 0.85

Dear colleague, please send me the reported log10 IC50 for `EATFIDVHI` when you can. 1.03

Dear colleague, please send me the reported log10 IC50 for `NAKLTSTET` when you can. 0.94
